assay: Cytotoxicity against human HCT116 cells assessed as reduction in cell viability after 48 hrs by WST1 assay; type: functional, cell-based; conditions: HCT-116, 48 h

| compound | IC50 |
| --- | --- |
| CCCCCC(O)CC(=O)CCc1ccc(OC)c(OC)c1 (configuration not stated) | 76.5 µM |
| CCCC(O)CC(=O)CCc1ccc(O)c(OC)c1 (configuration not stated) | > 100 µM |
| CCCCC/C=C/C(=O)CCc1ccc(OC(C)=O)c(OC)c1 | 26.9 µM |
| CCCCC/C=C/C(=O)CCc1ccc(OC)c(OC)c1 | 1.54 µM |
| CCCCCC(CC(=O)CCc1ccc(O)c(OC)c1)OC (configuration not stated) | > 100 µM |
| CCCCCC(O)CC(=O)CCc1cc(OC)c(O)c(-c2cc(CCC(=O)CC(O)CCCCC)cc(OC)c2O)c1 (configuration not stated) | > 100 µM |
| CCCCCC(CC(=O)CCc1ccc(OC(C)=O)c(OC)c1)OC(C)=O (configuration not stated) | 30.9 µM |

----------
assay: Cytotoxicity against human HF19 cells assessed as reduction in cell viability after 48 hrs by WST1 assay; type: toxicity, cell-based
readout.kind: IC50 at 48 h

| compound | readout.value |
| --- | --- |
| C=CCOc1ccc(CCC(=O)CC(O)CCCCC)cc1OC (stereo not drawn) | > 100 µM |
| CCCCC/C=C/C(=O)CCc1ccc(OC(C)=O)c(OC)c1 | > 100 µM |
| CCCCCCCC(O)CC(=O)CCc1ccc(O)c(OC)c1 (stereo not drawn) | 77.6 µM |
| CCCCCC(CC(=O)CCc1ccc(OC)c(OC)c1)OC (stereo not drawn) | > 100 µM |
| CCCCCC(O)CC(=O)CCc1cc(OC)c(O)c(-c2cc(CCC(=O)CC(O)CCCCC)cc(OC)c2O)c1 (stereo not drawn) | 54.8 µM |
| CCCCC/C=C/C(=O)CCc1ccc(OC)c(OC)c1 | > 100 µM |
| CCCCCCCCCC(O)CC(=O)CCc1ccc(O)c(OC)c1 (stereo not drawn) | > 100 µM |
| CCCCCC(O)CC(=O)CCc1ccc(O)c(OC)c1 (stereo not drawn) | > 100 µM |

----------
test: Cytotoxicity against human TIG1 cells assessed as reduction in cell viability after 48 hrs by WST1 assay; type: toxicity, cell-based
readout.kind: IC50 at 48 h

| compound | readout.kind | readout.value |
| --- | --- | --- |
| CCCCC/C=C/C(=O)CCc1ccc(O)c(OC)c1 [SHOGAOL] | IC50 at 48 h | > 100 µM |
| CC(C)=CCCC(C)[C@H]1CC=C(C)C(O)[C@H]1O (stereo partly drawn) | IC50 at 48 h | > 100 µM |
| CCCCCCCCCC(O)CC(=O)CCc1ccc(O)c(OC)c1 (stereo not drawn) | IC50 at 48 h | > 100 µM |
